Taken from ChEMBL document CHEMBL1156948.

system: Yersinia pseudotuberculosis YPIII; assay: Inhibition of T3S in Yersinia pseudotuberculosis YPIII expressing yopE-luxAB at 200 uM after 3 hrs by luciferase reporter gene assay
Reported inhibition values for a set of molecules
Respond with the bare value in %.

Reference set (5 entries):
{"SMILES DATA": "COc1cc(Br)cc(/C=N/NC(=O)C(N)=O)c1O", "STUDY TARGET": "Yersinia pseudotuberculosis YPIII", "READING": 78}
{"SMILES DATA": "CCN(CC)c1ccc(/C=N/NC(=O)c2ccc(OC)c(OC)c2)c(O)c1", "STUDY TARGET": "Yersinia pseudotuberculosis YPIII", "READING": 56}
{"SMILES DATA": "COc1cc(C(=O)N/N=C/c2ccc(O)c(O)c2O)cc(OC)c1OC", "STUDY TARGET": "Yersinia pseudotuberculosis YPIII", "READING": 62}
{"SMILES DATA": "O=C(COc1ccc(F)cc1)N/N=C/c1cc(I)cc(I)c1O", "STUDY TARGET": "Yersinia pseudotuberculosis YPIII", "READING": 44}
{"SMILES DATA": "Cc1ccc(C(=O)N/N=C/c2cc(C(C)(C)C)ccc2O)cc1", "STUDY TARGET": "Yersinia pseudotuberculosis YPIII", "READING": 25}

Now let's try a different one.
Recorded result, `O=C(CCc1ccc(O)cc1)N/N=C/c1c(O)cc(O)cc1O` , inhibition: 46

---

system: Yersinia pseudotuberculosis YPIII; assay: Inhibition of T3S in Yersinia pseudotuberculosis YPIII expressing yopE-luxAB at 200 uM after 3 hrs by luciferase reporter gene assay
MEASUREMENT NAME: inhibition (%)
Provide the reading as a plain figure in %.

{"SMILES DATA": "O=C(N/N=C/c1ccc(Cl)cc1O)c1ccc(Br)cc1", "STUDY TARGET": "Yersinia pseudotuberculosis YPIII", "inhibition (%)": 10}
{"SMILES DATA": "N#CCC(=O)N/N=C/c1cc(Br)ccc1O", "STUDY TARGET": "Yersinia pseudotuberculosis YPIII", "inhibition (%)": 99}
{"SMILES DATA": "COc1cc([N+](=O)[O-])cc(/C=N/NC(=O)c2ccncc2)c1O", "STUDY TARGET": "Yersinia pseudotuberculosis YPIII", "inhibition (%)": 51}
{"SMILES DATA": "COc1cccc(C(=O)N/N=C/c2cc(C(C)(C)C)cc(C(C)(C)C)c2O)c1", "STUDY TARGET": "Yersinia pseudotuberculosis YPIII", "inhibition (%)": 11}
{"SMILES DATA": "COc1ccc(C(=O)N/N=C/c2cc(F)cc(Cl)c2O)cc1OC", "STUDY TARGET": "Yersinia pseudotuberculosis YPIII", "inhibition (%)": 64}

Turning now to a further record.
Memo: `O=C(Cc1ccccc1)N/N=C/c1cc(Br)ccc1O` , reported inhibition: 50

---

test system: Yersinia pseudotuberculosis YPIII; assay: Inhibition of T3S in Yersinia pseudotuberculosis YPIII expressing yopE-luxAB at 6.25 uM after 3 hrs by luciferase reporter gene assay
# binarize inhibition: threshold 10% inclusive, high side satisfied, low side not satisfied

Problem: Reported inhibition at or above 10%? `COc1ccc(C(=O)N/N=C/c2cc(F)cc(Cl)c2O)cc1OC`
Result: not satisfied

---

system: Yersinia pseudotuberculosis YPIII; test: Inhibition of T3S in Yersinia pseudotuberculosis YPIII expressing yopE-luxAB at 3.13 uM after 3 hrs by luciferase reporter gene assay
MEASUREMENT NAME: inhibition (%)
Answer with a number only, understood to be in %.

Look over these answered cases.
{"SMILES DATA": "CC(C)(C)c1ccc(O)c(/C=N/NC(=O)CC23CC4CC(CC(C4)C2)C3)c1", "inhibition, %": 3}
{"SMILES DATA": "CCN(CC)c1ccc(/C=N/NC(=O)c2ccc(OC)c(OC)c2)c(O)c1", "inhibition, %": 14}
{"SMILES DATA": "COc1ccc(Br)c(C(=O)N/N=C/c2cc([N+](=O)[O-])cc([N+](=O)[O-])c2O)c1", "inhibition, %": 0}
{"SMILES DATA": "COc1cccc(C(=O)N/N=C/c2cc(C(C)(C)C)cc(C(C)(C)C)c2O)c1", "inhibition, %": 4}
{"SMILES DATA": "COc1cc(Br)cc(/C=N/NC(=O)CCc2ccc(O)cc2)c1O", "inhibition, %": 3}

inhibition reading for `O=C(N/N=C/c1cc(F)cc(Cl)c1O)c1cc(Cl)cc(Cl)c1` : 4

The measured inhibition associated with `COc1ccc(/C=N/NC(=O)C(N)=O)c(O)c1` reads -6

compound `COc1cccc(C(=O)N/N=C/c2cc(OC)cc(OC)c2O)c1` , inhibition observed: 4

Record `COc1cc(Br)cc(/C=N/NC(=O)C(N)=O)c1O` , field inhibition: -4

Record summary for `N#CCC(=O)N/N=C/c1cc(Br)ccc1O` : reported inhibition = 11

---

tested on: Yersinia pseudotuberculosis YPIII; assay: Inhibition of T3S in Yersinia pseudotuberculosis YPIII expressing yopE-luxAB at 200 uM after 3 hrs by luciferase reporter gene assay
In this section we review reported inhibition values for a set of compounds.
# number only, unit % dropped from output

// below: answered compounds
{"SMILES DATA": "COc1ccc(Br)c(/C=N/NC(=O)CC#N)c1O", "inhibition / %": 59}
{"SMILES DATA": "COc1cc(/C=N/NC(=O)c2cccc(C(F)(F)F)c2)c(O)c(OC)c1", "inhibition / %": 75}

`NC(=O)C(=O)N/N=C/c1c(O)cc(O)cc1O` has a reported inhibition of 64

// recorded inhibition for `O=C(N/N=C/c1ccc(O)c(O)c1O)c1ccccc1[N+](=O)[O-]` : 96

Short answer for `CCN(CC)c1ccc(/C=N/NC(=O)c2cc(Cl)cc(Cl)c2)c(O)c1` : inhibition was 46

The measured inhibition associated with `O=C(N/N=C/c1cc([N+](=O)[O-])cc([N+](=O)[O-])c1O)c1ccc(Br)cc1` reads 18

Kindly note the recorded inhibition for `O=C(N/N=C/c1cccc(F)c1O)c1cccc(C(F)(F)F)c1` , which is 65

Looking up `COc1ccc(Br)c(C(=O)N/N=C/c2ccc(Cl)cc2O)c1` , I found its inhibition recorded as 58

The compound listed as `COc1ccc(/C=N/NC(=O)CCc2ccc(O)cc2)c(O)c1` has a reported inhibition of 88

---

# maps each entry to its inhibition
test system: Yersinia pseudotuberculosis YPIII; test: Inhibition of T3S in Yersinia pseudotuberculosis YPIII expressing yopE-luxAB at 50 uM after 3 hrs by luciferase reporter gene assay
State the answer as a number, implicitly in %.

Example molecules with recorded inhibition:
{"SMILES DATA": "CCN(CC)c1ccc(/C=N/NC(=O)COc2ccc(F)cc2)c(O)c1", "STUDY TARGET": "Yersinia pseudotuberculosis YPIII", "inhibition (%)": 54}
{"SMILES DATA": "COc1cc(Br)cc(/C=N/NC(=O)c2sc3ccccc3c2Cl)c1O", "STUDY TARGET": "Yersinia pseudotuberculosis YPIII", "inhibition (%)": 34}
{"SMILES DATA": "COc1ccc(Br)c(C(=O)N/N=C/c2cc(C(C)(C)C)ccc2O)c1", "STUDY TARGET": "Yersinia pseudotuberculosis YPIII", "inhibition (%)": 33}
{"SMILES DATA": "COc1ccc(C(=O)N/N=C/c2cc(I)cc(I)c2O)cc1OC", "STUDY TARGET": "Yersinia pseudotuberculosis YPIII", "inhibition (%)": 24}

inhibition measured on `COc1ccc(/C=N/NC(=O)C(N)=O)c(O)c1` = 73

---

tested on: Yersinia pseudotuberculosis YPIII; test: Inhibition of T3S in Yersinia pseudotuberculosis YPIII expressing yopE-luxAB at 200 uM after 3 hrs by luciferase reporter gene assay
This section presents compounds with their documented inhibition values.
The reply should contain only the number, in %.

Some compounds with recorded inhibition:
{"SMILES DATA": "COc1cc(Br)cc(/C=N/NC(=O)Cc2ccccc2)c1O", "RESULT UNIT": "%", "inhibition": 65}
{"SMILES DATA": "COc1cc([N+](=O)[O-])cc(/C=N/NC(=O)CC#N)c1O", "RESULT UNIT": "%", "inhibition": 43}
{"SMILES DATA": "COc1ccc(Br)c(/C=N/NC(=O)c2ccncc2)c1O", "RESULT UNIT": "%", "inhibition": 35}
{"SMILES DATA": "O=C(CC12CC3CC(CC(C3)C1)C2)N/N=C/c1cc([N+](=O)[O-])cc([N+](=O)[O-])c1O", "RESULT UNIT": "%", "inhibition": 13}
{"SMILES DATA": "O=C(N/N=C/c1cc(Br)ccc1O)c1ccncc1", "RESULT UNIT": "%", "inhibition": 98}
{"SMILES DATA": "O=C(N/N=C/c1cc(Br)ccc1O)c1ccccc1Cl", "RESULT UNIT": "%", "inhibition": 61}
{"SMILES DATA": "CC(C)(C)c1cc(/C=N/NC(=O)COc2ccc([N+](=O)[O-])cc2)c(O)c(C(C)(C)C)c1", "RESULT UNIT": "%", "inhibition": 4}
{"SMILES DATA": "COc1ccc(C(=O)N/N=C/c2cc(I)cc(I)c2O)cc1OC", "RESULT UNIT": "%", "inhibition": 40}
{"SMILES DATA": "O=C(N/N=C/c1cccc(F)c1O)c1ccc([N+](=O)[O-])cc1", "RESULT UNIT": "%", "inhibition": 59}
{"SMILES DATA": "CCN(CC)c1ccc(/C=N/NC(=O)COc2ccc(F)cc2)c(O)c1", "RESULT UNIT": "%", "inhibition": 50}

Let's switch to this compound now.
Reported inhibition ( `COc1ccc(/C=N/NC(=O)C(N)=O)c(O)c1` ) = 97
